Experiment: protein stability index of a GFP-peptide fusion (GPS, HEK-293T) (PSI 1-6); higher = more stable;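 note: 24-mer peptide tiles fused after GFP, lentivirally expressed, FACS-sorted into six equal bins by GFP/DsRed ratio, decoded by Illumina sequencing, PSI is the read-weighted mean bin number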
Details: treatment: DMSO; c terminus: a fixed tail appended
measure name: protein stability index
Would you mind answering with just the numeric figure?

{"seq text": "HPYSTTFQESASTPETRAKFTQDN [TEKT4]", "measure name": "protein stability index", "test value": 4.54}
{"seq text": "GCEDEYLVNPTCQVLVKDFTFEGF [ZER1]", "measure name": "protein stability index", "test value": 2.89}
{"seq text": "LCAPEVISLINTRMLFWACSTNKP [FAF2]", "measure name": "protein stability index", "test value": 3.04}
{"seq text": "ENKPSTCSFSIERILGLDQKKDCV [HESX1]", "measure name": "protein stability index", "test value": 3.12}

Query: Note protein stability index for the sequence shown: INSTAPFEEQENYFLLCDVLPEDR [ZNF277]
Reply: 3.92

Query: Note protein stability index for the sequence shown: ELSKDAQASAAPAAPLPERNSLSA [SLC29A1]
Reply: 5.15

Query: Note protein stability index for the sequence shown: SVLLSWEIPENYNSAMPFKILYDD [PTPRD]
Reply: 1.88

Query: Note protein stability index for the sequence shown: AENYLSGGGPGDGGGADTGTGGEE [FBXO33]
Reply: 5.42

Query: Note protein stability index for the sequence shown: SILNAKAPALPPGGTDPHGYHQVP [FOXJ1]
Reply: 3.6

These measurements were taken from the supplement of paper PMC10567573.
